The measurements presented in this section are drawn from paper PMC8565331.

# target desc: T1, StpA-CTD (Escherichia coli, UniProt P0ACG1 90-134)
# T1 chain: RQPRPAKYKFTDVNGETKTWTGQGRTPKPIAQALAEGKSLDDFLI
# procedure details: ITC; 5 C; n=2.21; 50 mM BisTris, 25 mM NaCl, pH 6.4; ITC at 5 and 25 C (40 uM RNA in cell, StpA-CTD 400/800/920 uM injected); NMR with 10% D2O, titration at 25 C
# condition: protein: recombinant; tags: none (His6-SUMOstar removed by SUMO protease); chain copies: 2; hairpin, locked 3'-fold
measure: Kd
Just so you know, I need the unit written after the number.

Any idea what its Kd is? The binder is GACCGGAAGGUCCGCCUUCC (structured_RNA, N6-dimethyladenosine at A2) [A2-DMA] 8.31 µM
